These measurements were taken from patent US10028992B2.

# Lookup of reported Results in a α7+/− β-galactosidase assay, Myotubes, 1 uM keyed by entry
Test system: α7 integrin promoter
Assay: muscle cell-based assay: α7βgal+/− myoblasts/myotubes, LacZ reporter, β-galactosidase cleavage of FDG
Set-up: species or system mouse
Details: Myotubes; compound at 1 uM
The answer should be written as a number, with no unit following it.

molecule="COc1ccccc1NS(=O)(=O)c1cc(NC(=O)c2ccc(Cl)nc2)ccc1N1CCCC1 [drawing 358]" system_name="α7 integrin promoter" number=0.2243

Task: What value of measured Results in a α7+/− β-galactosidase assay, Myotubes, 1 uM is listed for Cc1cc([N+](=O)[O-])ccc1NC(=O)C(C)N1CCN(c2ccccn2)CC1 (stereo not drawn) [drawing 393] ?
Result: 0.107

Task: Same for Cc1ccccc1S(=O)(=O)N1C[C@H]2CON(C)[C@H]2C[C@H]1c1cccc(-c2ccccc2)c1 [drawing 436]
Result: 0.03174

---

System: α7 integrin promoter
Experiment: muscle cell-based assay: α7βgal+/− myoblasts/myotubes, LacZ reporter, β-galactosidase cleavage of FDG
Parameters: species or system mouse
Settings: Myotubes; compound at 1 uM
Please respond with Fulfilled when measured Results in a α7+/− β-galactosidase assay, Myotubes, 1 uM is strictly beneath 0.04, and with Not fulfilled in all other cases.

Observe how each entry below is paired with its result.
compound="NS(=O)(=O)c1ccc(NC(=O)CN2CCc3ccccc32)cc1 [drawing 446]" classification=Fulfilled
compound="CCN(C(=O)c1ccc(S(=O)(=O)N(C)C)cc1)C(C)C(=O)Nc1ccc(C)cc1 (stereo not shown) [drawing 348]" classification=Fulfilled
compound="COc1ccccc1/C=C1\\C(=O)Nc2ccccc21 [drawing 492]" classification="Not fulfilled"
compound="CC(C)(C)NC(=O)NC(=O)CN1CCN(Cc2ccccc2)CC1 [drawing 424]" classification=Fulfilled
compound="CC(C)(C)c1ccc(C(=O)OCC(=O)Nc2sc3c(c2C#N)CCC3)cc1 [drawing 470]" classification=Fulfilled

Task: Find out if reported Results in a α7+/− β-galactosidase assay, Myotubes, 1 uM for CCC(C)C(CC)NC(=O)CSc1nnc(COc2ccc(Cl)cc2)o1 (stereo not shown) [drawing 374] is less than 0.04
Result: Not fulfilled

Task: Same for CC1CCN(C(CNS(=O)(=O)c2ccccc2)c2ccccc2)CC1 (stereo not shown) [drawing 404]
Result: Not fulfilled

Task: Same for CN(CCC1CCCCO1)C(=O)CCc1nnc(CCCCc2ccccc2)o1 (stereo not shown) [drawing 407]
Result: Fulfilled

Task: Same for Cc1nnc(SCC(=O)c2ccc(Br)cc2)s1 [drawing 501]
Result: Fulfilled

Task: Same for Cn1cc(CN(CCO)Cc2cccs2)c(-c2ccccc2F)n1 [drawing 315]
Result: Not fulfilled

Task: Same for O=C(NCCc1ccccc1)C1CCC(=O)N1C1CCCC1 (stereo not shown) [drawing 351]
Result: Fulfilled

Task: Same for C/C(=N\NC(=O)c1cc(C)oc1C)c1ccc2ccccc2c1 [drawing 444]
Result: Fulfilled

Task: Same for CC(C)(C)c1csc(NC(=O)c2cccnc2)n1 [drawing 455]
Result: Fulfilled

Task: Same for CC(O)CNc1nc2c(c(=O)n(Cc3ccc(Br)cc3)c(=O)n2C)n1C (stereo not shown) [drawing 372]
Result: Not fulfilled

Task: Same for COc1ccc(C(=O)Cn2nnc(-c3ccccc3NC(=O)c3ccco3)n2)cc1 [drawing 465]
Result: Not fulfilled

Task: Same for COc1ccc(OC)c(NC(=O)CN2CCC(NC(=O)c3ccccc3C)CC2)c1 [drawing 366]
Result: Not fulfilled

Task: Same for Cc1ccc(N2C(=O)C3NN=C(C(=O)OCc4ccccc4)C3C2=O)cc1 (stereo not shown) [drawing 392]
Result: Fulfilled

Task: Same for Fc1ccc(-c2ccnc3nc(N4CCN(c5ccccc5)CC4)nn23)cc1 [drawing 441]
Result: Not fulfilled
